- tested.on: T1, human GIP receptor (human, UniProt P48546 22-466)
- T1 construct: whole, on cells; also called hGIPR; hGIP-R
- T1 sequence (looked up): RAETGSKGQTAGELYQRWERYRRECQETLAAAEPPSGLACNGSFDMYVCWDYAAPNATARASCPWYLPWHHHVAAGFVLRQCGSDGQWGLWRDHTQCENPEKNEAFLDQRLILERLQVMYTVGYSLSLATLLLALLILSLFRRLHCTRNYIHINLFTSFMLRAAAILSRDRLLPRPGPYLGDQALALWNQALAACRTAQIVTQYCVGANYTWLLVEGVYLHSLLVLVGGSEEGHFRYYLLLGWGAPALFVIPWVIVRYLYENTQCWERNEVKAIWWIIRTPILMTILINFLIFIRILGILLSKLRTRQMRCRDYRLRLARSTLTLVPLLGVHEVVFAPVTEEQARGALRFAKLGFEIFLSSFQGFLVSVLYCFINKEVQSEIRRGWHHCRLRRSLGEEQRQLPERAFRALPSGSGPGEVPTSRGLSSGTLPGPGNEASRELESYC
- procedure.details: [125I]-GIP competition SPA, hGIPR membranes
Consider the following binders; for each one, report its Ki.
One number for each entry, in nM.

{"binder": "YXEGTXTSDYSILLDXKAQXEFIXYLIEGGPSSGAPPPS (Aib2; αMeF(2F)6; Orn16; K17((2-[2-(2-Amino-ethoxy)-ethoxy]-acetyl)2-(γ-Glu)-CO-(CH2)16-CO2H); Aib20; D-Glu24; C-terminal NH2) [Example 248]", "readout.units": "nM", "recorded.value": 0.0397}
{"binder": "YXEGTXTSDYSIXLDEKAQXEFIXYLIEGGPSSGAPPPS (Aib2; αMeF6; αMeL13; K17((2-[2-(2-Amino-ethoxy)-ethoxy]-acetyl)2-(γ-Glu)-CO-(CH2)16-CO2H); Aib20; D-Glu24; C-terminal NH2) [Example 213]", "readout.units": "nM", "recorded.value": 0.365}

# next binder below
**Query** Reported Ki, binder YXEGTXTSDYSILLDKKAQXEFIEYLIAGGPSSG (Aib2; αMeF6; K17((2-[2-(2-Amino-ethoxy)-ethoxy]-acetyl)2-(γ-Glu)-CO-(CH2)16-CO2H); Aib20; C-terminal NH2) [Example 310] : ____
**Result** 0.0315
